# Target System: KRas G13D (Homo sapiens, UniProt P01116, G13D)
# Sequence (P01116 1-169 isoform P01116-2 G13D): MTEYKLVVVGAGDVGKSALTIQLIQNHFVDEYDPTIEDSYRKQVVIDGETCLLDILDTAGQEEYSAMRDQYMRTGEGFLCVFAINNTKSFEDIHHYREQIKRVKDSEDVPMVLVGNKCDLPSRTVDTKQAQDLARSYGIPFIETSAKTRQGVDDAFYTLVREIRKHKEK
# Type: binding
# Conditions: TR-FRET displacement, read-out: Binding to KRas (IC50 nM) G13D
Measured Metric: log10 IC50 (log10 of the value in nM)
A value of 2 here means IC50 of 100 in nM, since values are log10.

[ask] GET log10 IC50 | system: KRas G13D (Homo sapiens, UniProt P01116, G13D) | item: CCc1cccc2cccc(N3CCc4c(nc(OCC5(CN(C)C)CC5)nc4NCCc4nnc(N)o4)C3)c12
[reply] 4.52

[ask] GET log10 IC50 | system: KRas G13D (Homo sapiens, UniProt P01116, G13D) | item: CCc1cccc2cccc(N3CCc4c(nc(OCC5(CN(C)C)CC5)nc4NCc4ncc(C#N)c(N)n4)C3)c12
[reply] 3.52

[ask] GET log10 IC50 | system: KRas G13D (Homo sapiens, UniProt P01116, G13D) | item: CN(C)C(=O)c1cc2n(n1)CCCN(c1nc(OC[C@@]34CCCN3C[C@H](F)C4)nc3c1CCN(c1cccc4cccc(Cl)c14)C3)C2
[reply] 2.38

[ask] GET log10 IC50 | system: KRas G13D (Homo sapiens, UniProt P01116, G13D) | item: Oc1cc(Cl)c(C2CC2)c(N2CCc3c(nc(OCC45CCCN4CCC5)nc3N3CC4CC(O)C(C4)C3)C2)c1 (stereo not drawn)
[reply] 1.72

[ask] GET log10 IC50 | system: KRas G13D (Homo sapiens, UniProt P01116, G13D) | item: CCc1cccc2cccc(N3CCc4c(nc(OCC5(CN(C)C)CC5)nc4N4CCCn5nc(CO)cc5C4)C3)c12
[reply] 3.65

[ask] GET log10 IC50 | system: KRas G13D (Homo sapiens, UniProt P01116, G13D) | item: CCc1cccc2cccc(N3CCc4c(nc(OCC5(CN(C)C)CC5)nc4N4CC(CO)OC(C(F)(F)F)C4)C3)c12 (stereo not drawn)
[reply] 3.95

[ask] GET log10 IC50 | system: KRas G13D (Homo sapiens, UniProt P01116, G13D) | item: CCc1cccc2cccc(N3CCc4c(nc(OCC5(CN(C)C)CC5)nc4N4CCCC(n5ccc(C)n5)C4)C3)c12 (stereo not drawn)
[reply] 3.79

[ask] GET log10 IC50 | system: KRas G13D (Homo sapiens, UniProt P01116, G13D) | item: CCc1cccc2cccc(N3CCc4c(nc(OCC5(CN(C)C)CC5)nc4N4CCN(C(=O)c5c[nH]c(=O)[nH]5)CC4)C3)c12
[reply] 3.49

[ask] GET log10 IC50 | system: KRas G13D (Homo sapiens, UniProt P01116, G13D) | item: CCc1cccc2cccc(N3CCc4c(nc(OCC5(CN(C)C)CC5)nc4N(C)Cc4nnc5n4CCOC5)C3)c12
[reply] 3.64

[ask] GET log10 IC50 | system: KRas G13D (Homo sapiens, UniProt P01116, G13D) | item: CCc1cccc2cccc(N3CCc4c(nc(OCC5(CN(C)C)CC5)nc4NC4CN(c5nccn6nc(C)cc56)C4)C3)c12
[reply] 4.00

Others:
[ask] GET log10 IC50 | system: KRas G13D (Homo sapiens, UniProt P01116, G13D) | item: CCc1cccc2cccc(N3CCc4c(nc(OCC5(CN(C)C)CC5)nc4NCc4nnnn4C4CCC4)C3)c12
[reply] 4.09

[ask] GET log10 IC50 | system: KRas G13D (Homo sapiens, UniProt P01116, G13D) | item: CCc1cccc2cccc(N3CCc4c(nc(OCC5(CN(C)C)CC5)nc4N4CCC(n5cn[nH]c5=O)CC4)C3)c12
[reply] 4.16

[ask] GET log10 IC50 | system: KRas G13D (Homo sapiens, UniProt P01116, G13D) | item: CCc1cccc2cccc(N3CCc4c(nc(OCC5(CN(C)C)CC5)nc4NC4CN(C(=O)NC)C4)C3)c12
[reply] 3.79

[ask] GET log10 IC50 | system: KRas G13D (Homo sapiens, UniProt P01116, G13D) | item: CCc1cccc2cccc(N3CCc4c(nc(OCC5(CN(C)C)CC5)nc4NCc4ccnn4CC(F)F)C3)c12
[reply] 4.21

[ask] GET log10 IC50 | system: KRas G13D (Homo sapiens, UniProt P01116, G13D) | item: Cc1cc2[nH]ncc2c(N2CCc3c(nc(OCC45CCCN4CCC5)nc3N3CCCn4nc(C(=O)N(C)C)cc4C3)C2)c1C
[reply] 3.06

---

Listed next: entries and their corresponding log10 of IC50.
# Target System: KRas G12D (Homo sapiens, UniProt P01116, G12D)
# Sequence (P01116 1-169 isoform P01116-2 G12D): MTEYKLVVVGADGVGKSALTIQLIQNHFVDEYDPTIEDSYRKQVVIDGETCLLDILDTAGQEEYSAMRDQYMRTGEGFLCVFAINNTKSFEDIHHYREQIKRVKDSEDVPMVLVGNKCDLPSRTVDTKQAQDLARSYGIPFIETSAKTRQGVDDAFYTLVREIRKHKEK
# Protocol Details: biochemical
# Conditions: Binding to KRas (IC50 nM) G12D, TR-FRET displacement, KRas G12D
A value of 2 here means IC50 of 100 in nM, since values are log10.

[ask] Please give the documented log10 of IC50 of CCc1cccc2cccc(N3CCc4c(nc(OCC5(CN(C)C)CC5)nc4NCc4ncc(C#N)c(N)n4)C3)c12
[reply] 3.88

[ask] Please give the documented log10 of IC50 of O=C1NC(=O)C2(CCCN(c3nc(OCC45CCCN4CCC5)nc4c3CCN(c3cc(O)cc(Cl)c3C3CC3)C4)C2)N1 (stereo not drawn)
[reply] 0.30

[ask] Please give the documented log10 of IC50 of CCCCCCCCCCN(C)C(=O)c1cc2n(n1)CCCN(c1nc(OC[C@@]34CCCN3C[C@H](F)C4)nc3c1CCN(c1cc(O)cc4ccc(F)c(CC)c14)C3)C2
[reply] 2.12

[ask] Please give the documented log10 of IC50 of CC1(O)COCCN(c2nc(OCC34CCCN3CCC4)nc3c2CCN(c2cc(O)cc(Cl)c2C2CC2)C3)C1 (stereo not drawn)
[reply] 0.85

[ask] Please give the documented log10 of IC50 of CCc1cccc2cccc(N3CCc4c(nc(OCC5(CN(C)C)CC5)nc4NCc4cnc(C)nc4N)C3)c12
[reply] 3.37

---

# Test system: H727 cells
# Protocol Details: Inhibition of KRas-mediated phosphorylation of ERK (Cisbio HTRF pERK), H727 cells
# Assay type: cell-based
# Conditions: Homo sapiens, NCI-H727, single point at 100 nM, 3 hrs compound incubation
Please note: Met applies when inhibition at 0.1 µM is 40% or greater, and Not met applies otherwise.

[ask] Assess whether reported inhibition at 0.1 µM for CCc1c(F)ccc2cc(O)cc(N3CCc4c(nc(OC[C@@]56CCCN5C[C@H](F)C6)nc4N4CCCCn5nc(C(=O)N(C)C)cc5C4)C3)c12 sits at 40% or higher.
[reply] Met

[ask] Assess whether reported inhibition at 0.1 µM for CCc1c(F)ccc2cc(O)cc(N3CCc4c(nc(OC[C@@]56CCCN5C[C@H](F)C6)nc4N4CCCn5nc(C(=O)N6CC7CNC(C7)C6)cc5C4)C3)c12 (some centres unmarked) sits at 40% or higher.
[reply] Not met

[ask] Assess whether reported inhibition at 0.1 µM for CCc1c(F)ccc2cc(O)cc(N3CCc4c(nc(OC[C@@]56CCCN5C[C@H](F)C6)nc4N4CCCn5nc(C(=O)N6CC7CCC6CC7)cc5C4)C3)c12 sits at 40% or higher.
[reply] Met

[ask] Assess whether reported inhibition at 0.1 µM for CCc1c(F)ccc2cc(O)cc(N3CCc4c(nc(OC[C@@]56CCCN5C[C@H](F)C6)nc4N4CCCn5nc(C(=O)N6CC7CC(C6)N(C)C7)cc5C4)C3)c12 (some centres unmarked) sits at 40% or higher.
[reply] Not met

---

# Target System: KRas G12S (Homo sapiens, UniProt P01116, G12S)
# Sequence (P01116 1-169 isoform P01116-2 G12S): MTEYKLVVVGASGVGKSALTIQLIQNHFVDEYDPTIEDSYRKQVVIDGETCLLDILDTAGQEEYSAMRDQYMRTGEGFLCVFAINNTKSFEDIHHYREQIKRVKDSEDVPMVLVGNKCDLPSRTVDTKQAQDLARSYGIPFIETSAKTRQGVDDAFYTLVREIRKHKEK
# Format: binding
# Conditions: TR-FRET displacement, read-out: Binding to KRas (IC50 nM) G12S
Measured Metric: log10 of IC50 (log10 of the value in nM)
A value of 2 here means IC50 of 100 in nM, since values are log10.

Consider the worked cases shown below.
[ask] Please give the documented log10 of IC50 of C[C@@]1(O)COCCN(c2nc(OC[C@@]34CCCN3C[C@H](F)C4)nc3c2CCN(c2ccc(F)c4sc(N)c(C#N)c24)C3)C1
[reply] 1.78

[ask] Please give the documented log10 of IC50 of CCc1cccc2cccc(N3CCc4c(nc(OCC5(CN(C)C)CC5)nc4N4CCC(n5cn[nH]c5=O)CC4)C3)c12
[reply] 4.25

[ask] Please give the documented log10 of IC50 of Cc1cc2[nH]ncc2c(N2CCc3c(nc(OCC45CCCN4CCC5)nc3N3CC4CC(O)C(C4)C3)C2)c1C (stereo not drawn)
[reply] 3.10

[ask] Please give the documented log10 of IC50 of O=C1NCC2(CCCN(c3nc(OCC45CCCN4CCC5)nc4c3CCN(c3cc(O)cc(Cl)c3C3CC3)C4)C2)N1 (stereo not drawn)
[reply] 0.48

[ask] Please give the documented log10 of IC50 of CCc1cccc2cccc(N3CCc4c(nc(OCC5(CN(C)C)CC5)nc4N4CCC(F)C(OC)C4)C3)c12 (stereo not drawn)
[reply] 2.88

[ask] Please give the documented log10 of IC50 of CN(C)C(=O)c1cc2n(n1)CCCN(c1nc(OC[C@@]34CCCN3C[C@H](F)C4)nc3c1CCN(c1cccc4cccc(Cl)c14)C3)C2
[reply] 1.66

[ask] Please give the documented log10 of IC50 of CCc1cccc2cccc(N3CCc4c(nc(OCC5(CN(C)C)CC5)nc4NCc4ccnn4CC(F)F)C3)c12
[reply] 3.93

[ask] Please give the documented log10 of IC50 of CCc1cccc2cccc(N3CCc4c(nc(OCC5(CN(C)C)CC5)nc4NCc4ccnn4C4CC4(F)F)C3)c12 (stereo not drawn)
[reply] 2.23

[ask] Please give the documented log10 of IC50 of O=C1CC2(CCCN(c3nc(OCC45CCCN4CCC5)nc4c3CCN(c3cc(O)cc(Cl)c3C3CC3)C4)C2)N1 (stereo not drawn)
[reply] 0.60

[ask] Please give the documented log10 of IC50 of CCc1cccc2cccc(N3CCc4c(nc(OCC5(CN(C)C)CC5)nc4NCc4ncc5c(n4)CCOC5)C3)c12
[reply] 3.77

Others:
[ask] Please give the documented log10 of IC50 of C[C@@H]1C[C@@H]1c1c(Cl)cc(O)cc1N1CCc2c(nc(OC[C@@]34CCCN3C[C@H](F)C4)nc2N2CCCn3nc(C(=O)N(C)C)cc3C2)C1 (stereo in doubt)
[reply] 0.30

[ask] Please give the documented log10 of IC50 of CCc1cccc2cccc(N3CCc4c(nc(OCC5(CN(C)C)CC5)nc4N4CCCOC(CCO)C4)C3)c12 (stereo not drawn)
[reply] 2.86

[ask] Please give the documented log10 of IC50 of Cc1cc2[nH]ncc2c(N2CCc3c(nc(OCC45CCCN4CCC5)nc3N3CCOCC(C)(O)C3)C2)c1C (stereo not drawn)
[reply] 2.24

[ask] Please give the documented log10 of IC50 of CCc1cccc2cccc(N3CCc4c(nc(OCC5(CN(C)C)CC5)nc4N4Cc5nncn5C(C)C4)C3)c12 (stereo not drawn)
[reply] 3.74

[ask] Please give the documented log10 of IC50 of Cc1cc2[nH]ncc2c(N2CCc3c(nc(OCC45CCCN4CCC5)nc3N3CCCC4(C3)NC(=O)NC4=O)C2)c1C (stereo not drawn)
[reply] 1.04
